- Test system: microorganisms
- test-summary: Peptide activities: targeting/binding, antimicrobial, growth or phenotype altering (Tables 7, 8);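 further: key B targeting or binding activity; M antimicrobial activity; G GROWTH or phenotype altering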
- Type: cell-based
- experimental-setup: peptides having multiple activities
Ends that are not written are not given here.
measurement-kind: Activities

The examples below pair each entry with its known result.
PF-255: peptide having multiple activities (chain 1 DHKINESQHNPFRSDSNKQNVDFF; chain 2 DHKINESQHNPFRSDSNKQNVDFF; Peptide with targeting and/or antimicrobial activity) ... G B
PF-741: peptide having multiple activities (AKREDTVAAQIGANILNLIQ; Peptide with targeting and/or antimicrobial activity) ... G B
PF-175: peptide having multiple activities (RRRPAGQRPEKASQAMIAA; Peptide with targeting and/or antimicrobial activity) ... G B
PF-445: peptide having multiple activities (ASMTKRLKLAMSKV; Peptide with targeting and/or antimicrobial activity) ... G B
PF-421: peptide having multiple activities (chain 1 KHCFEITDKTDVV; chain 2 KHCFEITDKTDVV; Peptide with targeting and/or antimicrobial activity) ... G B
PF-539: peptide having multiple activities (SIILTKKKRRKIPLSIDSQIYKYTFKQ; Peptide with targeting and/or antimicrobial activity) ... G B
YIQFHLNQQPRPKVKKIKIFL-NH2 [PF-531] ... G M
SKFKVLRKIIIKEYKGELMLSIQKQR [PF-530] ... G M

Input: Would you mind telling me what Activities value was observed for PF-011: peptide having multiple activities (MFCYYKQHKGDNFSIEEVKNIIADNEMKVN; Peptide with targeting and/or antimicrobial activity) ?
Output: G B

Reference for the values: patent US20110039763A1
